- MEASUREMENT_PROTOCOL: growth inhibition of non-replicating M. tuberculosis (AID 488890);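 further: plate controls were DMSO cells for no effect and high antibiotic wells for full effect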
- TEST_PARAMETERS: Mycobacterium tuberculosis non-replicating, at 25 µM, stronger effect = higher value
Hit rate of the full screen: of about 320,000 compounds, about 1,300 (0.41%) were called active. Another 3% or so got no clear call; they are omitted. Only a sample is shown. Potency and affinity values are given separately.
# if value of inhibition reaches 10%, tag Criterion met; if it stays below, tag Criterion not met

Example results:
- MOLECULE: "C=CCc1ccc(OCCCCOc2ccc(C(=O)O)cc2)c(OC)c1"
  CLASS_LABEL: "Criterion met"
- MOLECULE: "Cc1cc(NC(=O)Cn2nnc3sc4c(c3c2=O)CCCC4)no1"
  CLASS_LABEL: "Criterion not met"
- MOLECULE: "Cc1ccc(OCC(O)Cn2c(N3CCOCC3)nc3c2c(=O)[nH]c(=O)n3C)cc1 (stereo unspecified)"
  CLASS_LABEL: "Criterion met"
- MOLECULE: "O=C(COc1ccccc1F)Nc1c2c(nn1-c1ccccc1)CS(=O)(=O)C2"
  CLASS_LABEL: "Criterion met"

Please find the next molecule below.
stdin: Has Cc1cccn2c(=O)c3cc(S(=O)(=O)c4ccccc4)c(=N)n(Cc4cccnc4)c3nc12 a recorded inhibition greater than or equal to 10%?
stdout: Criterion not met

----------
- MEASUREMENT_PROTOCOL: growth inhibition of non-replicating M. tuberculosis (AID 488890);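 further: plate controls were DMSO cells for no effect and high antibiotic wells for full effect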
- TEST_PARAMETERS: Mycobacterium tuberculosis non-replicating, at 25 µM, stronger effect = higher value
Among all 320,000 compounds or so, about 1,300 (0.41%) were called active. Not shown: some 3% with an inconclusive outcome. A selection follows. Entries with a potency or affinity are not part of this list.
VALUE_KIND: inhibition (%)
Reply numerically in %, unit not repeated.

- COMPOUND: "COc1ccc(-c2[nH]nc3c2C(c2ccc(OC(=O)N4CCOCC4)cc2)C(C#N)=C(N)O3)cc1 (stereo unspecified)"
  inhibition (%): 13.2
- COMPOUND: "O=c1cc(C(F)(F)F)[nH]c2ccccc12"
  inhibition (%): -4.11
- COMPOUND: "CN1CCN(Cc2cc(Cl)c3cccnc3c2OC(=O)c2cccs2)CC1"
  inhibition (%): 51
- COMPOUND: "Cc1ccc(S(=O)(=O)N(C)C)cc1-n1c(SCC(=O)Nc2ccc(F)cc2)nc2ccccc2c1=O"
  inhibition (%): 26.8
- COMPOUND: "Cc1cccc2c(=O)cc(C(F)(F)F)[nH]c12"
  inhibition (%): 52.3

Here is another compound to look at.
stdin: Consider the compound Cn1cccc1CC(=O)N/N=C/c1cc([N+](=O)[O-])ccc1Cl and give its recorded inhibition.
stdout: 14.2

----------
Recorded inhibition by entry
- MEASUREMENT_PROTOCOL: growth inhibition of non-replicating M. tuberculosis (AID 488890);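 further: plate controls were DMSO cells for no effect and high antibiotic wells for full effect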
- TEST_PARAMETERS: Mycobacterium tuberculosis non-replicating, at 25 µM, stronger effect = higher value
About 1,300 (0.41%) of roughly 320,000 compounds were called active. Another 3% or so got no clear call; they are omitted. The list is a sample of the results. Entries with a potency or affinity are not part of this list.
Reply numerically in %, unit not repeated.

- COMPOUND: "Cc1[nH]n(-c2ccccc2)c(=O)c1N=Nc1cccc(Cl)c1"
  UNIT_INFO: "%"
  ENDPOINT_RESULT: 1.75
- COMPOUND: "O=C(Cc1ccc([N+](=O)[O-])cc1)Nc1ccc(Br)cn1"
  UNIT_INFO: "%"
  ENDPOINT_RESULT: -0.37
- COMPOUND: "CC(NCc1ccc(Cl)cc1)C(O)c1ccccc1 (stereo unspecified)"
  UNIT_INFO: "%"
  ENDPOINT_RESULT: 12.6
- COMPOUND: "CC(C)CCC(C(=O)O)C(C)CC(=O)Nc1ccn(-c2ccccc2)n1 (stereo unspecified)"
  UNIT_INFO: "%"
  ENDPOINT_RESULT: -10
- COMPOUND: "O=C(COC(=O)CCOc1ccccc1)Nc1ccc(Cl)cn1"
  UNIT_INFO: "%"
  ENDPOINT_RESULT: 79.6
- COMPOUND: "CCCn1nnnc1NCc1ccc(N(C)C)cc1"
  UNIT_INFO: "%"
  ENDPOINT_RESULT: 2.84

stdin: Consider the compound O=C1c2ccccc2C(=O)N1CCOc1cccc(Br)c1 and give its recorded inhibition.
stdout: 53.6

stdin: Consider the compound O=c1c2ccccc2nc(-c2ccc([N+](=O)[O-])cc2)n1-c1ccccc1 and give its recorded inhibition.
stdout: -1.75

stdin: Consider the compound O=C(Cc1ccc(Cl)cc1)Nc1ccc(Cl)cn1 and give its recorded inhibition.
stdout: 78.1

stdin: Consider the compound O=C(NCc1nnc(SCC(=O)N2CCC(Cc3ccccc3)CC2)o1)c1ccccc1F and give its recorded inhibition.
stdout: 47.1

stdin: Consider the compound O=C(CSc1oc(-c2ccc(F)cc2)nc1S(=O)(=O)c1ccccc1)NCC1CCCO1 (stereo unspecified) and give its recorded inhibition.
stdout: -4.84

stdin: Consider the compound CCCn1nnnc1NCc1ccc(OC)cc1 and give its recorded inhibition.
stdout: 37

stdin: Consider the compound Cc1ccc(N2C(=O)NC(NC(=O)C(C)(C)C)(C(F)(F)F)C2=O)cc1C (stereo unspecified) and give its recorded inhibition.
stdout: -24.4

All values here come from PubChem BioAssay AID488890.
